target: SIRT1 (Homo sapiens, UniProt Q96EB6); experiment: Trp mass spectrometry assay of SIRT1 activity; format: biochemical; conditions: concentration of test compound giving 150% activation of SIRT1; Trp peptide substrate
RECORDED ENDPOINT: Trp EC1.5 (μM)

Solved cases (10 shown):
COMPOUND	RESULT VALUE
Cn1ccc(NC(=O)c2cnc3ccc(-c4ccccc4C(F)(F)F)nn23)n1 [Compound 112]	B (EC1.5 1-25 μM)
O=C(Nc1cncc(F)c1)c1cnc2ccc(-c3ccccc3C(F)(F)F)nn12 [Compound 107]	B (EC1.5 1-25 μM)
O=C(Nc1cnc2ccc(-c3ccccc3C(F)(F)F)nn12)c1cncc(N2CCOCC2)n1 [Compound 120]	B (EC1.5 1-25 μM)
O=C(Nc1cnccc1N1CCOCC1)c1cnc2ccc(-c3ccccc3C(F)(F)F)nn12 [Compound 177]	C (EC1.5>25 μM)
Cc1ccc(NC(=O)c2cnc3ccc(-c4ccccc4C(F)(F)F)nn23)cn1 [Compound 98]	B (EC1.5 1-25 μM)
CS(=O)(=O)c1ccccc1-c1ccc2ncc(C(=O)Nc3ccnc(N4CCC4)c3)n2n1 [Compound 186]	C (EC1.5>25 μM)
CS(=O)(=O)c1cccc(-c2ccc3ncc(C(=O)Nc4nccs4)n3n2)c1 [Compound 11]	A (EC1.5<1 μM)
O=C(Nc1ccnc(N2CCC2)c1)c1cnc2ccc(-c3c(F)cccc3F)nn12 [Compound 170]	B (EC1.5 1-25 μM)
O=C(Nc1cccnc1)c1cnc2ccc(-c3cccc(F)c3Cl)nn12 [Compound 183]	C (EC1.5>25 μM)
CN(C)CCn1cc(NC(=O)c2cnc3ccc(-c4ccccc4C(F)(F)F)nn23)cn1 [Compound 155]	C (EC1.5>25 μM)

Can you share its Trp EC1.5 (μM)? I mean this compound: Cc1nc2ccc(-c3ccccc3C(F)(F)F)nn2c1C(=O)Nc1cccc(N2CCOCC2)n1 [Compound 71]
A (EC1.5<1 μM)

Can you share its Trp EC1.5 (μM)? I mean this compound: O=C(Nc1cccc(CN2CCOCC2)n1)c1cnc2ccc(-c3cccc(Cl)c3)nn12 [Compound 26]
C (EC1.5>25 μM)

Can you share its Trp EC1.5 (μM)? I mean this compound: O=C(Nc1ccccn1)c1cnc2ccc(-c3c(F)cccc3F)nn12 [Compound 167]
C (EC1.5>25 μM)

Can you share its Trp EC1.5 (μM)? I mean this compound: O=C(Nc1ccnc(CN2CCOCC2)n1)c1cnc2ccc(-c3ccccc3C(F)(F)F)nn12 [Compound 23]
B (EC1.5 1-25 μM)

Can you share its Trp EC1.5 (μM)? I mean this compound: Cn1nccc1C(=O)Nc1cnc2ccc(-c3ccccc3C(F)(F)F)nn12 [Compound 93]
C (EC1.5>25 μM)

Can you share its Trp EC1.5 (μM)? I mean this compound: O=C(Nc1cccc(CN2CCOCC2)n1)c1cnc2ccc(-c3cccc(C(F)(F)F)c3)nn12 [Compound 5]
B (EC1.5 1-25 μM)

Can you share its Trp EC1.5 (μM)? I mean this compound: O=C(Nc1cccc(N2CCOCC2)n1)c1cnc2ccc(-c3ccccc3Cl)nn12 [Compound 95]
A (EC1.5<1 μM)

* * *

target: SIRT1 (Homo sapiens); assay: Trp mass spectrometry assay of SIRT1 activity; format: biochemical; conditions: Trp assay; concentration giving 150% activation of SIRT1
RECORDED ENDPOINT: Trp EC1.5 (μM)

MOLECULE	Trp EC1.5 (μM)
O=C(Nc1ccnc(O)c1)c1cnn2ccc(-c3ccccc3OC(F)(F)F)nc12	A (EC1.5<1 μM)
O=C(Nc1cnc2ccc(-c3ccccc3F)nn12)c1ccncn1	C (EC1.5>25 μM)
O=C(Nc1ccncc1F)c1cnc2ccc(N3CC(F)(F)C3)nn12	C (EC1.5>25 μM)
Cc1cccc(NC(=O)c2c(C)nc3ccc(-c4ccccc4OC[C@H](O)CO)nn23)n1	A (EC1.5<1 μM)

Alright, here's another molecule for you.
Can you share its Trp EC1.5 (μM)? I mean this molecule: CN(C)[C@H]1CCN(c2ccc3ncc(C(=O)Nc4cccnc4)n3n2)C1
B (EC1.5 1-25 μM)

* * *

target: SIRT1 (Homo sapiens); assay: Trp mass spectrometry assay of SIRT1 activity; assay type: biochemical; conditions: Trp assay; concentration giving 150% activation of SIRT1
RECORDED ENDPOINT: Trp EC1.5 (μM)

Solved cases (10 shown):
MOL SMILES	TGT	Trp EC1.5 (μM)
COCCOc1nccc(NC(=O)c2cnc3c(C)cc(-c4ccccc4C(F)(F)F)nn23)n1	SIRT1 (Homo sapiens)	A (EC1.5<1 μM)
CCOc1cc(NC(=O)c2c(C)nn3ccc(-c4ccccc4C(F)(F)F)nc23)ccn1	SIRT1 (Homo sapiens)	A (EC1.5<1 μM)
Cc1cncc(NC(=O)c2c(C)nn3ccc(-c4ccccc4C(F)(F)F)nc23)n1	SIRT1 (Homo sapiens)	A (EC1.5<1 μM)
COc1ccc(NC(=O)c2c(C)nc3ccc(-c4ccccc4Cl)nn23)nn1	SIRT1 (Homo sapiens)	C (EC1.5>25 μM)
Cc1cc(NC(=O)c2c(C)nc3c(OC[C@H](O)CO)cc(-c4ccccc4C(F)(F)F)nn23)nc(C)n1	SIRT1 (Homo sapiens)	A (EC1.5<1 μM)
Cc1ccc(NC(=O)c2c(C)nc3ccc(-c4cccc(F)c4)nn23)nn1	SIRT1 (Homo sapiens)	A (EC1.5<1 μM)
O=C(Nc1cnc2ccc(-c3ccccc3Cl)nn12)c1ccccn1	SIRT1 (Homo sapiens)	C (EC1.5>25 μM)
O=C(Nc1ccc(F)cn1)c1cnn2ccc(-c3ccccc3OC(F)(F)F)nc12	SIRT1 (Homo sapiens)	C (EC1.5>25 μM)
O=C(Nc1cccnc1)c1cnc2ccc(N3CC[C@H](F)C3)nn12	SIRT1 (Homo sapiens)	B (EC1.5 1-25 μM)
O=C(Nc1cccnc1)c1cnc2ccc(N3CCCC3)nn12	SIRT1 (Homo sapiens)	B (EC1.5 1-25 μM)

Can you share its Trp EC1.5 (μM)? I mean this compound: Cc1ccc(NC(=O)c2c(C)nc3ccc(-c4ccccc4Cl)nn23)nn1
C (EC1.5>25 μM)

Can you share its Trp EC1.5 (μM)? I mean this compound: Cc1nc2ccc(N3CC[C@H](F)C3)nn2c1C(=O)Nc1cnccn1
B (EC1.5 1-25 μM)

Can you share its Trp EC1.5 (μM)? I mean this compound: Cc1nn2ccc(-c3ccccc3C(F)(F)F)nc2c1C(=O)Nc1ncc(F)cc1F
B (EC1.5 1-25 μM)

Can you share its Trp EC1.5 (μM)? I mean this compound: Cc1nc2ccc(-c3ccccc3C(F)(F)F)nn2c1C(=O)Nc1ccnn1C(C)C
B (EC1.5 1-25 μM)

Can you share its Trp EC1.5 (μM)? I mean this compound: Cc1cnc(NC(=O)c2c(C)nn3ccc(-c4ccccc4C(F)(F)F)nc23)cn1
A (EC1.5<1 μM)

Can you share its Trp EC1.5 (μM)? I mean this compound: Cc1cccnc1NC(=O)c1cnn2ccc(-c3ccccc3OC(F)(F)F)nc12
A (EC1.5<1 μM)

Can you share its Trp EC1.5 (μM)? I mean this compound: O=C(Nc1ccncc1F)c1cnn2ccc(-c3ccccc3OC(F)(F)F)nc12
A (EC1.5<1 μM)

* * *

target: SIRT1 (Homo sapiens, UniProt Q96EB6); assay: TAMRA based mass spectrometry assay of SIRT1 activity; assay type: biochemical; conditions: concentration of test compound giving 150% activation of SIRT1; TAMRA peptide substrate
RECORDED ENDPOINT: TAMRA EC1.5 (μM)

Solved cases (6 shown):
COMPOUND	TAMRA EC1.5 (μM)
Cc1cc(C)nc(NC(=O)c2cnc3ccc(-c4ccccc4C(F)(F)F)nn23)c1 [Compound 101]	A (EC1.5<1 μM)
O=C(Nc1ccnc(N2CCC2)c1)c1cnc2ccc(-c3c(F)cccc3F)nn12 [Compound 170]	A (EC1.5<1 μM)
O=C(Nc1cnc2ccc(-c3ccccc3C(F)(F)F)nn12)c1cccc(CN2CCOCC2)n1 [Compound 81]	A (EC1.5<1 μM)
O=C(Nc1ccnc(N2CCC2)c1)c1cnc2ccc(-c3ccc(F)c(F)c3F)nn12 [Compound 132]	C (EC1.5>25 μM)
O=C(Nc1cnc2ccc(-c3ccccc3C(F)(F)F)nn12)c1ccnc(N2CCCC2)c1 [Compound 124]	A (EC1.5<1 μM)
O=C(Nc1ccncc1F)c1cnc2ccc(-c3ccccc3C(F)(F)F)nn12 [Compound 100]	A (EC1.5<1 μM)

Alright, here's another compound for you.
Can you share its TAMRA EC1.5 (μM)? I mean this compound: Cc1noc(C)c1-c1ccc2ncc(C(=O)Nc3ccnc(N4CCC4)c3)n2n1 [Compound 55]
C (EC1.5>25 μM)

* * *

Target: SIRT1 (Homo sapiens, UniProt Q96EB6)
Sequence (Q96EB6 1-747): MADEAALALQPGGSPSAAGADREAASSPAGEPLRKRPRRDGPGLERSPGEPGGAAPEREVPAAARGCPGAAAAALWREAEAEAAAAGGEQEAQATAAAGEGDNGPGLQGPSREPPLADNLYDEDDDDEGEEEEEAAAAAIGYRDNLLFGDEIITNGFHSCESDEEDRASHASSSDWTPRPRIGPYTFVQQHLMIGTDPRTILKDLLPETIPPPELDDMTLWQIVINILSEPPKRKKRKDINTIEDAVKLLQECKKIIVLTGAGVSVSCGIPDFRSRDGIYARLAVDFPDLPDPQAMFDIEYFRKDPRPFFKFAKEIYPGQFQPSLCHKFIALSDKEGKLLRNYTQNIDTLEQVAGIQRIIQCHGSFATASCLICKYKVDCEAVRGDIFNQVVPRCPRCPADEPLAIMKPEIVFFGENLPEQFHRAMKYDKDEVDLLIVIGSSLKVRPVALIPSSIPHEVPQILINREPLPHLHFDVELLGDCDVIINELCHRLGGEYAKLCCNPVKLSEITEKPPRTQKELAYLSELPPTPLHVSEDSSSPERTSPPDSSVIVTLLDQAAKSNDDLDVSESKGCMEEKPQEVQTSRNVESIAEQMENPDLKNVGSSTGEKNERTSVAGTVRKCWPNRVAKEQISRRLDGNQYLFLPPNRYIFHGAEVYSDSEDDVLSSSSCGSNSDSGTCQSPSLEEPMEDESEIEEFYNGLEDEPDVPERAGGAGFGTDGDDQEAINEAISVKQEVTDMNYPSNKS
Assay: TAMRA based mass spectrometry assay of SIRT1 activity
Assay type: biochemical
Conditions: percent maximum fold activation of SIRT1; TAMRA peptide substrate; read-out: TAMRA % Fold Act
Measured Emax of individual entries

MOL SMILES	RESULT VALUE
Cc1cc(-c2ccccc2C(F)(F)F)nn2c(C(=O)Nc3ccncc3)cnc12	≥ 350%
O=C(Nc1cccc(CN2CCOCC2)n1)c1cnc2ccc(-c3ccccc3C(F)(F)F)nn12	≥ 350%
O=C(Nc1ccncc1)c1cnc2ccc(-c3ccc(F)c(F)c3F)nn12	< 350%

Can you share its Emax? I mean this molecule: O=C(Nc1ccnc(N2CCC2)c1)c1cnc2ccc(-c3cncc(C(F)F)c3)nn12
< 350%

Can you share its Emax? I mean this molecule: O=C(Nc1ccncc1)c1cnc2ccc(-c3cccc(F)c3Cl)nn12
< 350%

Can you share its Emax? I mean this molecule: COc1nccc(NC(=O)c2cnc3ccc(-c4ccccc4C(F)(F)F)nn23)n1
≥ 350%

Can you share its Emax? I mean this molecule: O=C(Nc1cnc2ccc(-c3ccccc3C(F)(F)F)nn12)c1ccncc1
< 350%

Can you share its Emax? I mean this molecule: Cc1nc2ccc(-c3ccccc3C(F)F)nn2c1C(=O)Nc1ccnc(N2CCOCC2)c1
≥ 350%
